Experiment: folding enthalpy; higher = less favourable; fluorescence melt of hairpins on a sequencing array, two-state fit
Conditions: sodium 0.088 M
The recorded folding enthalpy of each item maps onto one of these classes: A = under -30 kcal/mol, B = from -30 kcal/mol up to -20 kcal/mol, C = -20 kcal/mol and over

Problem: Note: place this sequence into its band. Item: GCCCACGAAAGTGAAGGC ((((((....)))..)))
Result: B

Problem: Note: place this sequence into its band. Item: GTGTCACGAAAGTGCCAC (((.(((....))).)))
Result: A

Problem: Note: place this sequence into its band. Item: GCAAAAGGAAACTCTTGC ((((.((....)).))))
Result: C

Problem: Note: place this sequence into its band. Item: GACTCGAAAGAGTC (((((....)))))
Result: A

Problem: Note: place this sequence into its band. Item: TTGCTGAAAAGCAA (((((....)))))
Result: C

Problem: Note: place this sequence into its band. Item: GATCACACTGGTGATC ((((((....))))))
Result: A

Problem: Note: place this sequence into its band. Item: GATCCAAAACTGGATC ((((((....))))))
Result: A

Problem: Note: place this sequence into its band. Item: GATCCAAGCGTGGATC ((((((....))))))
Result: A

Problem: Note: place this sequence into its band. Item: GAAGCGCGAAAGCGTTTC (((.(((....))).)))
Result: B

Problem: Note: place this sequence into its band. Item: GCCATGCGAAAGCACAGC ((..(((....)))..))
Result: C

Problem: Note: place this sequence into its band. Item: GTAAGCGAAAGCTTTAC ((((((....))).)))
Result: C

Problem: Note: place this sequence into its band. Item: GCGCCGCGAAAGCCGGGC ((.(.((....)).).))
Result: C

Problem: Note: place this sequence into its band. Item: GAGCAGGGAAACCTGCCC (.(((((....))))).)
Result: C

Problem: Note: place this sequence into its band. Item: GTACTTGCGAAAGCATAC (((..(((....))))))
Result: C

Problem: Note: place this sequence into its band. Item: GATCACTCTGTGATC ((((((...))))))
Result: A

Problem: Note: place this sequence into its band. Item: GCGCACGAAAGTGTCCGC ((((((....)))..)))
Result: C

Problem: Note: place this sequence into its band. Item: GCGGATGTCCGC ((((....))))
Result: B

Problem: Note: place this sequence into its band. Item: GCGAATTTCGC ((((...))))
Result: B

Problem: Note: place this sequence into its band. Item: GATCGCGCCGGCGATC ((((((....))))))
Result: B

Problem: Note: place this sequence into its band. Item: CGCGGAACGGTCCGCG ((((((....))))))
Result: A

Problem: Note: place this sequence into its band. Item: GATCGAGGAAACTCAATC (((.(((....))).)))
Result: C

Problem: Note: place this sequence into its band. Item: GTACTGGGAAACCAGTAC (((((((....)))))))
Result: A

Problem: Note: place this sequence into its band. Item: GCGAGGCGAAAGCGGCGC (((..((....))..)))
Result: A

Problem: Note: place this sequence into its band. Item: GCCAAGCGAAAGCTCGGC (((.(((....))).)))
Result: A

* * *

Assay: melting temperature; fluorescence melt of hairpins on a sequencing array, two-state fit, raised by 9.35 °C to match UV melts
Conditions: sodium 0.088 M
For each of the sequences below, state its Tm.
Answer format: numeric, °C implied, no suffix.

Problem: Request the reported Tm associated with GCATCACGAAAGTGTGC (((.(((....))))))
Result: 56

Problem: Request the reported Tm associated with GATACAGAAATGTATC ((((((....))))))
Result: 44.8

Problem: Request the reported Tm associated with GTTGCCCGAAAGGGAAAC (((.(((....))).)))
Result: 56.4

Problem: Request the reported Tm associated with GCGGTGCGAAAGCGCTGC ((.(.((....)).).))
Result: 66.9

Problem: Request the reported Tm associated with GACGGCCCGAAAGGGGTC (((..(((....))))))
Result: 44.1

Problem: Request the reported Tm associated with GGTGACCGAAAGGTTACC (((.(((....))).)))
Result: 60.5

Problem: Request the reported Tm associated with CGATGACGGAAACGTTCG (((..(((....))))))
Result: 36.7

Problem: Request the reported Tm associated with GTGAACGAAAGTTGCCAC ((((((....)))..)))
Result: 25.9

Problem: Request the reported Tm associated with GCGGAAGTCCGC ((((....))))
Result: 56

Problem: Request the reported Tm associated with GATCTTTCGTAAGATC ((((((....))))))
Result: 44.4

Problem: Request the reported Tm associated with GTGACTCGAAAGAGCCAC (((.(((....))).)))
Result: 54.5

Problem: Request the reported Tm associated with GTAGACGAAAGTCTTAC ((((((....))).)))
Result: 38.6

Problem: Request the reported Tm associated with GAGTACCGAAAGGTCCTC (((.(((....))).)))
Result: 45.3

Problem: Request the reported Tm associated with GGTTGACGAAAGTCTACC (((.(((....))).)))
Result: 53.8

Problem: Request the reported Tm associated with GCCAACGGAAACGTCGGC (((.(((....))).)))
Result: 51.1

Problem: Request the reported Tm associated with GGGTCTTCGAAAGAACCC (((..(((....))))))
Result: 40.6

Problem: Request the reported Tm associated with GTTAACGAAAGTTAAC ((((((....))))))
Result: 56

Problem: Request the reported Tm associated with GATCTGTTCACAGATC ((((((....))))))
Result: 56.9

Problem: Request the reported Tm associated with GGAGTACGAAAGTAGTCC (((.(((....))).)))
Result: 55.2

Problem: Request the reported Tm associated with GCCCGGCGAAAGCCTAGC ((..(((....)))..))
Result: 27.2

Problem: Request the reported Tm associated with GGGGGTGGAAACATCCCC ((((.((....)).))))
Result: 56.8

Problem: Request the reported Tm associated with GTCTACACGAAAGTGGAC (((..(((....))))))
Result: 37.2

Problem: Request the reported Tm associated with GGTGCGGGAAACCGTACC (((.(((....))).)))
Result: 58.1

Problem: Request the reported Tm associated with GATCAAGGGGTTGATC ((((((....))))))
Result: 42.8

Problem: Request the reported Tm associated with GATCCCCAGGGGATC ((((((...))))))
Result: 61.9

* * *

Test: melting temperature; fluorescence melt of hairpins on a sequencing array, two-state fit, raised by 9.35 °C to match UV melts
Details: sodium 0.088 M
Classification field: label 1 = Tm at or over 40 °C; label 0 = Tm under 40 °C.

Problem: Is it the case that GATCATCTTTATGATC ((((((....)))))) has Tm reaching or exceeding 40 °C?
Result: label 1

Problem: Is it the case that GGCGACCGAAAGGTGCC (((.(((....)))))) has Tm reaching or exceeding 40 °C?
Result: label 1

Problem: Is it the case that GCGTGGCGAAAGCTAGGC ((.(.((....)).).)) has Tm reaching or exceeding 40 °C?
Result: label 1

Problem: Is it the case that GCTATGAAAATAGC (((((....))))) has Tm reaching or exceeding 40 °C?
Result: label 1

Problem: Is it the case that GCTAAAGGAAACTTTAGC (((((((....))))))) has Tm reaching or exceeding 40 °C?
Result: label 1

Problem: Is it the case that GGCGGAGGAAACCCCACC ((.((.(....).)).)) has Tm reaching or exceeding 40 °C?
Result: label 0

Problem: Is it the case that GAAATCCGAAAGGACTTC (((.(((....))).))) has Tm reaching or exceeding 40 °C?
Result: label 0

Problem: Is it the case that GATCGAGATTTCGATC ((((((....)))))) has Tm reaching or exceeding 40 °C?
Result: label 1

Problem: Is it the case that GTTCAGCCGAAAGGCAAC (((..(((....)))))) has Tm reaching or exceeding 40 °C?
Result: label 0

Problem: Is it the case that GATCCTAATAGGATC ((((((...)))))) has Tm reaching or exceeding 40 °C?
Result: label 1

Problem: Is it the case that GAATGCGAAAGCACCTTC ((((((....)))..))) has Tm reaching or exceeding 40 °C?
Result: label 0

Problem: Is it the case that GTGGTTGCGAAAGCACAC (((..(((....)))))) has Tm reaching or exceeding 40 °C?
Result: label 1

Problem: Is it the case that GGTTGGGGAAACTCAGCC ((.((.(....).)).)) has Tm reaching or exceeding 40 °C?
Result: label 0

Problem: Is it the case that GCCCCGCGAAAGCGGAGC ((.((((....)))).)) has Tm reaching or exceeding 40 °C?
Result: label 1

Problem: Is it the case that GTCATACGAAAGTACGAC (((.(((....))).))) has Tm reaching or exceeding 40 °C?
Result: label 1

Problem: Is it the case that GCAGCTCCGAAAGGATGC (((..(((....)))))) has Tm reaching or exceeding 40 °C?
Result: label 1

Problem: Is it the case that GCGGCGTCCCGC ((((....)))) has Tm reaching or exceeding 40 °C?
Result: label 1

Problem: Is it the case that GCTGTGCGAAAGCTAAGC (((..((....))..))) has Tm reaching or exceeding 40 °C?
Result: label 1

Problem: Is it the case that GGAGCTGGAAACGGCTTC (.(((.(....).))).) has Tm reaching or exceeding 40 °C?
Result: label 1

Problem: Is it the case that GTCTTCCGAAAGGATGAC (((.(((....))).))) has Tm reaching or exceeding 40 °C?
Result: label 1

Problem: Is it the case that GCACAGCGAAAGCTTTGC (((.(((....))).))) has Tm reaching or exceeding 40 °C?
Result: label 1

Problem: Is it the case that AGACGGAAACGTCT (((((....))))) has Tm reaching or exceeding 40 °C?
Result: label 1

Ref: the array DNA melting data of Ke et al. (doi:10.1101/2024.01.08.574731)
